B1: glmS ribozyme (parent)
chain: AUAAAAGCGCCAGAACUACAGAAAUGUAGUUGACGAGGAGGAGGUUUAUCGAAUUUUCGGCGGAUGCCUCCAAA

- Variants of: B1
- Protocol Summary: self-cleavage kobs at 10000 uM GlcN6P; higher = faster cleavage; RNA array
- Test Settings: with glucosamine-6-phosphate
This sample holds only a part of the variants without activity.
Readout Type: self-cleavage kobs at 10000 uM GlcN6P (s⁻¹)
The response must be a number in s⁻¹ with no trailing unit.

Prompt: Could you share which self-cleavage kobs at 10000 uM GlcN6P value was measured for A6U A53U ?
Response: 0.000159

Prompt: Could you do the same for A39U G66A , please?
Response: 0.0134

Prompt: Could you do the same for G13C U45A , please?
Response: 0.000213

Prompt: Could you do the same for U47G C71G , please?
Response: 0.000265

Prompt: Could you do the same for A14G C50G C68U U69A C71G , please?
Response: 0.000199

Prompt: Could you do the same for A15U A39C , please?
Response: 0.00102

Prompt: Could you do the same for U56A U69A , please?
Response: 8.66e-05

Prompt: Could you do the same for A14G A15U C67G , please?
Response: 0.0027

Prompt: Could you do the same for U30G U56A , please?
Response: 0.00771

Prompt: Could you do the same for U31A G40C , please?
Response: 0.00101

Prompt: Could you do the same for U31G , please?
Response: 0.0227

Prompt: Could you do the same for A53U C71U , please?
Response: 0.0301

Prompt: Could you do the same for A14G C16U G43A C67G , please?
Response: 0.00217

Prompt: Could you do the same for U54A U57C , please?
Response: 0.000134

Prompt: Could you do the same for U47C U54A , please?
Response: 0.00384

Prompt: Could you do the same for A64G C67A , please?
Response: 0.00346

Prompt: Could you do the same for A6G C58A C67G , please?
Response: 0.000123

Prompt: Could you do the same for C10A A14U C70A , please?
Response: 3.49e-05

Prompt: Could you do the same for C11U U69C , please?
Response: 0.000482

Prompt: Could you do the same for C67U C71U , please?
Response: 0.00213

Prompt: Could you do the same for G29U U31A U56A C67A , please?
Response: 0.00027

Prompt: Could you do the same for U47C U55A , please?
Response: 0.00496

Prompt: Could you do the same for C50G A53U C71G , please?
Response: 0.000148

Prompt: Could you do the same for U45C A53G C67G C68A , please?
Response: 8.22e-05

Prompt: Could you do the same for A64G U65C , please?
Response: 0.000113

Prompt: Could you do the same for C16A , please?
Response: 0.00269

Prompt: Could you do the same for C11U U55C , please?
Response: 0.00181

Prompt: Could you do the same for A12U U30A C70U , please?
Response: 0.0461

Prompt: Could you do the same for U65G U69G , please?
Response: 6.56e-05

Prompt: Could you do the same for A39G A53C , please?
Response: 0.0216

Prompt: Could you do the same for U31A C67U , please?
Response: 0.00427

Prompt: Could you do the same for G41A U45C , please?
Response: 0.000372

Prompt: Could you do the same for C10U A14G , please?
Response: 0.000159

Prompt: Could you do the same for G41A C70A , please?
Response: 0.00019

Prompt: Could you do the same for A6G A39G , please?
Response: 0.00121

Prompt: Could you do the same for C10U U55C , please?
Response: 1.93e-05

Prompt: Could you do the same for C11U U31C , please?
Response: 0.000465

Prompt: Could you do the same for A39U A48C , please?
Response: 0.000196

Prompt: Could you do the same for G13U U30A A53G , please?
Response: 4.23e-05

Prompt: Could you do the same for A48C C68U , please?
Response: 7.54e-05

Prompt: Could you do the same for A52U C71A , please?
Response: 0.000144
